Numbers sourced from paper PMC5610242.

# pKd annotations
# TARGET_OR_TEST_SYSTEM: T1, GST-RAB25 (1-180) (UniProt P57735 1-180)
# T1 construct: RAB25, residues 1-180, in pET41 Ek/LIC; source: E. coli BL21, purified (glutathione sepharose, Superdex 75 gel filtration)
# T1 sequence (looked up): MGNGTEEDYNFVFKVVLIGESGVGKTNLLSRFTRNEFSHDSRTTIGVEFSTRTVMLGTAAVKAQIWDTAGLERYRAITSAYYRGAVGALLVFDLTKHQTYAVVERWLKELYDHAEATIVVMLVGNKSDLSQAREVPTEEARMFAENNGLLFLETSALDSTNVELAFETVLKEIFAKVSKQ
# ASSAY_COMMENT: fluorescence polarisation; FITC-peptide 25 nM with threefold dilutions of GST-RAB protein; 20 mM Tris pH 8.0, 150 mM NaCl, 5 mM MgCl2, 2 mM DTT, 10 µM GTP, 2% glycerol; room temperature, 30 min; apparent Kd from a sigmoidal (4-parameter) fit, 95% confidence interval
# MEASUREMENT_SETUP: both partners purified
pKd: −log10 of the molar value. Bridge positions count the residues as written; N and C are the ends. Square brackets hold non-standard residues; d marks the D form. Ends that are not written are not given here. * marks the point of attachment. FITC = O=C1OC2(c3ccc(O)cc3Oc3cc(O)ccc32)c2ccc(NC(=S)*)cc21; S5 = C=CCCC[C@](C)(N)C(=O)O; PEG = not defined here; βAla = NCCC(=O)O

Field: example entries. Status: answers known.
# input binder: {FITC-PEG-βAla}-RINFRLQ[S5]YID[S5]IIVAIMETNPSILEVK (staple 8-12; reading uncertain) [FITC-RFP10 (FIP3-derived stapled peptide, 'YID' staple)] ; wanted: its pKd
< 5.30

Given {FITC-PEG-βAla}-RQVRELED[S5]IDR[S5]LVRVMEETPNILRIPR (staple 9-13; reading uncertain) [FITC-RFP9 (FIP1-derived stapled peptide, 'IDR' staple)] , state its recorded pKd.
5.92

Now turn to the next binder.
Which pKd is listed for {FITC-PEG}-ERDTHIRELEDYIDNLLVRVMEETPSILRVPR (reading uncertain, limits worked out from the printed L485, V486 and M489; also called fRFP2; FIP2 peptide; source: synthetic peptide (Fmoc solid phase, HPLC purified)) [FITC-RFP2 (unmodified FIP2 RAB-binding domain peptide)] ?
< 5.30
